Measured on: SARS‐CoV‐2 RdRp complex (nsp12, nsp7, nsp8) (Severe acute respiratory syndrome coronavirus 2)
Method notes: biochemical
Type: biochemical
Study conditions: read-out: RA ± SD (residual activity of RdRp), at 10 μM concentration of screened compounds; AUC with compound / AUC of noninhibited reaction
Recorded remaining activity at 10 µM for the following compounds
Write the answer as a number in %, unit excluded.

Examples with their reported remaining activity at 10 µM follow.
Query smiles: Cl.O=C1CN(Cc2ccc(NC(=O)Nc3cc(Cl)cc(Cl)c3)cc2C(F)(F)F)CCN1
Unit info: %
remaining activity at 10 µM: 63

Query smiles: O=C(Nc1cc(Cl)cc(Cl)c1)Nc1ccc(CNCCO)c(C(F)(F)F)c1
Unit info: %
remaining activity at 10 µM: 76

Turning now to a further compound:
Fill in: remaining activity at 10 µM of "CN1CCN(Cc2c(Cl)cc(NC(=O)Nc3cccc(C(F)(F)F)c3)cc2Cl)CC1" is ___
79

====

Method notes: Kinetic solubility
Study conditions: as restated in Conclusions
Readout kind: log10 of kinetic solubility (log10 of the value in µM L^−1)
In our notation, the value equals log10 of kinetic solubility in µM L^−1.

Examples with their reported log10 of kinetic solubility follow.
Compound: O=C(Nc1cc(Cl)cc(Cl)c1)Nc1ccc(CN2CCOC(C(=O)[O-])C2)c(C(F)(F)F)c1.[Li+] (stereo not drawn)
Readout kind: log10 of kinetic solubility
Number: 1.85

Compound: Cl.O=C(Nc1cc(Cl)cc(Cl)c1)Nc1ccc(CN2CCOCC2)c(C(F)(F)F)c1
Readout kind: log10 of kinetic solubility
Number: 0.62

Compound: NC(=O)c1ccc(NC(=O)Nc2cc(Cl)cc(Cl)c2)cc1C(F)(F)F
Readout kind: log10 of kinetic solubility
Number: 1.51

Compound: CN1CCN(Cc2ccc(NC(=O)Nc3cc(Cl)cc(Cl)c3)cc2C(F)(F)F)CC1.Cl
Readout kind: log10 of kinetic solubility
Number: 1.64

Turning now to a further compound:
Fill in: log10 of kinetic solubility of "COC(=O)CNCc1ccc(NC(=O)Nc2cc(Cl)cc(Cl)c2)cc1C(F)(F)F.Cl" is ___
1.32

====

Recorded remaining activity at 10 µM for the following compounds
Measured on: SARS‐CoV‐2 RdRp complex (nsp12, nsp7, nsp8) (Severe acute respiratory syndrome coronavirus 2, UniProt P0DTD1)
Method notes: biochemical
Assay type: biochemical
Study conditions: read-out: RA ± SD (residual activity of RdRp), at 10 μM concentration of screened compounds; AUC with compound / AUC of noninhibited reaction
Write the answer as a number in %, unit excluded.

Examples with their reported remaining activity at 10 µM follow.
Compound: COC(=O)CNCc1ccc(NC(=O)Nc2cc(Cl)cc(Cl)c2)cc1C(F)(F)F.Cl
Unit info: %
remaining activity at 10 µM: 43
--
Compound: Cl.NC(=O)C1CN(Cc2ccc(NC(=O)Nc3cc(Cl)cc(Cl)c3)cc2C(F)(F)F)CCO1 (stereo not shown)
Unit info: %
remaining activity at 10 µM: 52
--
Compound: CN1CCN(Cc2cc(NC(=O)Nc3cc(Cl)cc(Cl)c3)ccc2C(F)(F)F)CC1
Unit info: %
remaining activity at 10 µM: 100

Turning now to a further compound:
Fill in: remaining activity at 10 µM of "Cl.O=C(Nc1cc(Cl)cc(Cl)c1)Nc1ccc(C(F)(F)F)c(CN2CCCC2)c1" is ___
67
